Hey, just so you know, these numbers are from patent US20230091225A1.

molecular target: androgen receptor (AR) (Homo sapiens, UniProt P10275); experiment: Degradation of androgen receptor (AR) protein in VCaP cells by ELISA; assay type: cell-based; settings: VCaP, AR degradation, VCaP cells, 16 h, ELISA, Table 3-1; read-out: Dmax (%)
Sequence (P10275 whole entry): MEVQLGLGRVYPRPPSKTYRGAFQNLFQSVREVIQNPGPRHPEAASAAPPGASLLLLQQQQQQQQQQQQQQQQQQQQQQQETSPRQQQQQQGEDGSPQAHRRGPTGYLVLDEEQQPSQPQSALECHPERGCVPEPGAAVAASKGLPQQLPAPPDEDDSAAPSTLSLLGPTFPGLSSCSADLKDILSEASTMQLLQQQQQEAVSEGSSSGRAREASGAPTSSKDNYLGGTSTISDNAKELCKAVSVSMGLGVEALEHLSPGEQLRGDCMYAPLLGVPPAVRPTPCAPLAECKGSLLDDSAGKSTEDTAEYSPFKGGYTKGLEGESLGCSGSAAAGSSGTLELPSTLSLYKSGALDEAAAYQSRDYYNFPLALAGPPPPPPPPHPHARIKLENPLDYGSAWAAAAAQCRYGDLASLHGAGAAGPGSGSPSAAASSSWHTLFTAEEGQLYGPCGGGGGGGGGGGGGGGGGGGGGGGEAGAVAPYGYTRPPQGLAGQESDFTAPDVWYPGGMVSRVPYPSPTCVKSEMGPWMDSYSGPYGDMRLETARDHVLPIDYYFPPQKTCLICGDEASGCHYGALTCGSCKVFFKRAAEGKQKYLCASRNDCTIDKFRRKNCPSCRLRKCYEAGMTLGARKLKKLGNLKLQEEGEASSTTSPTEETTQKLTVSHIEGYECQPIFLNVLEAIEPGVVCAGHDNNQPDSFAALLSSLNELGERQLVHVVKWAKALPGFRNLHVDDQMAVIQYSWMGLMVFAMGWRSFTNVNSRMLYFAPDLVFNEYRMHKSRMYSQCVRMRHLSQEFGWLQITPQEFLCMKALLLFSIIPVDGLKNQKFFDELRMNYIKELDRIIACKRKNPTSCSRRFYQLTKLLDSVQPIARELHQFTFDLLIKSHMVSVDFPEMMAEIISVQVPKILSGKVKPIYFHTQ
Assay readout: Dmax

Consider the worked cases shown below.
Compound	Tested system	Dmax
CC1(C)[C@H](Oc2ccc(C#N)c(Cl)c2)C(C)(C)[C@H]1N1Cc2nc(C#CC3CC(N4CC5CN(c6ccc7c(c6)C(=O)N(C6CCC(=O)NC6=O)C7=O)CC5C4)C3)ccc2C1=O (some centres unmarked)	androgen receptor (AR) (Homo sapiens, UniProt P10275)	60 to 80%
N#Cc1ccc(O[C@H]2CC[C@H](NC(=O)c3cnc(N4CCC5(CN(CC6CCN(c7cc8c(cc7F)C(=O)N(C7CCC(=O)NC7=O)C8=O)CC6)C5)C4)cn3)CC2)cc1Cl (some centres unmarked)	androgen receptor (AR) (Homo sapiens, UniProt P10275)	> 80%
N#Cc1ccc(O[C@H]2CC[C@H](NC(=O)c3ccc(N4CCC5(CC4)CN(CC4CCN(c6ccc7c(c6)C(=O)N(C6CCC(=O)NC6=O)C7=O)CC4)C5)nn3)CC2)cc1Cl (some centres unmarked)	androgen receptor (AR) (Homo sapiens, UniProt P10275)	> 80%
C[C@H]1CN(C[C@@H]2[C@H]3CN(c4cc5c(cc4F)C(=O)N(C4CCC(=O)NC4=O)C5=O)C[C@@H]23)CCN1c1ccc(C(=O)N[C@H]2CC[C@H](Oc3ccc(C#N)c(Cl)c3)CC2)nn1 (some centres unmarked)	androgen receptor (AR) (Homo sapiens, UniProt P10275)	> 80%

Query string: Give recorded Dmax with androgen receptor (AR) (Homo sapiens, UniProt P10275) for the following compound: N#Cc1ccc(O[C@H]2CC[C@H](NC(=O)c3cnc(N4CC5(CCN(CC6CCN(c7ccc8c(c7)C(=O)N(C7CCC(=O)NC7=O)C8=O)CC6)CC5)C4)cn3)CC2)cc1Cl (some centres unmarked)
Result string: > 80%
